Origin of the recorded values: the RNAGym collection of RNA variant scans (doi:10.1073/pnas.2313332121)

Catalogue of variants with associated polymerase ribozyme fitness (log ratio)
B1: TPR 5TU (parent)
chain: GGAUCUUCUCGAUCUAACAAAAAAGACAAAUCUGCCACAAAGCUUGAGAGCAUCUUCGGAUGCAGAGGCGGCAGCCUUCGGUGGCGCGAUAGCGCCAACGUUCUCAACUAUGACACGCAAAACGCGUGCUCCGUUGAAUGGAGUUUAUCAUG

- Variants of: B1
- experimental-details: polymerase ribozyme fitness, log enrichment relative to wild type (log ratio); higher = more active; in vitro selection for triplet polymerase activity
Variants at the floor of the assay were thinned out.

mutation-label: C36G G59U C105G
polymerase ribozyme fitness (log ratio): ≤ -4.2

mutation-label: G83C C96U A147U G152A
polymerase ribozyme fitness (log ratio): -1.98

mutation-label: A73G C87A
polymerase ribozyme fitness (log ratio): -4.18

mutation-label: C32A U45A A60G C75U G81A U90G C116A
polymerase ribozyme fitness (log ratio): ≤ -4.2

mutation-label: C18G G59A C75U C93A A107C C118A
polymerase ribozyme fitness (log ratio): ≤ -4.2

mutation-label: C10G U44G A49C A52C A64C G74C U104G A122G G141A
polymerase ribozyme fitness (log ratio): ≤ -4.2

mutation-label: C38A U53A C63U G80A C95A
polymerase ribozyme fitness (log ratio): ≤ -4.2

mutation-label: U9G A23C U56A A73U G86C
polymerase ribozyme fitness (log ratio): ≤ -4.2

mutation-label: U9C A30G A66C G84A A150C
polymerase ribozyme fitness (log ratio): ≤ -4.2

mutation-label: C14U A23C
polymerase ribozyme fitness (log ratio): ≤ -4.2

mutation-label: G86A A142C
polymerase ribozyme fitness (log ratio): -2.27

mutation-label: C95U C125U A142C
polymerase ribozyme fitness (log ratio): -3.48

mutation-label: C43A U45G U90A U102G G140A A147C
polymerase ribozyme fitness (log ratio): ≤ -4.2

mutation-label: A29C G58C
polymerase ribozyme fitness (log ratio): -3.97
